Listed here are molecules together with their documented EC50.
ASSAY SYSTEM: human P-selectin (Homo sapiens)
Sequence (P16109 42-771): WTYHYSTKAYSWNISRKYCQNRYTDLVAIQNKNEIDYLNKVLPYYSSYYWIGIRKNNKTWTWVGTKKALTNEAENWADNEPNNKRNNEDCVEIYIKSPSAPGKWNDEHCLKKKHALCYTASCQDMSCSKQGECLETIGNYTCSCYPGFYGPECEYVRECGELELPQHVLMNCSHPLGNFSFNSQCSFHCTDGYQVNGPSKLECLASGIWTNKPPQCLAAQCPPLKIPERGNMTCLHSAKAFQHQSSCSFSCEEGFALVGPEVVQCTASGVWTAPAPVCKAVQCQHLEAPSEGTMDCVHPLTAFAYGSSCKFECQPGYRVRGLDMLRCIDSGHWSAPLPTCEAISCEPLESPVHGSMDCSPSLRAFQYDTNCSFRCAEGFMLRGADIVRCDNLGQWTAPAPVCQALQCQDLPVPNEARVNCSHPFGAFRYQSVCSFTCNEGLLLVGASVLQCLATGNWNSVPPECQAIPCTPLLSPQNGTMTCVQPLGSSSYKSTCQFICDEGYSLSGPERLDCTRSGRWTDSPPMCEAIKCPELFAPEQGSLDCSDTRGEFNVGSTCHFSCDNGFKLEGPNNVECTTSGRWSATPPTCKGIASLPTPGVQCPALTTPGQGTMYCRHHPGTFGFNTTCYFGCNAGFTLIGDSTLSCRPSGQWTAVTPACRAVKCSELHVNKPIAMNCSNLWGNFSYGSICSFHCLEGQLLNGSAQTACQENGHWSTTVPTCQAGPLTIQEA
PROTOCOL NOTES: inhibition assay of SO3-sLea-PAA-biotin binding to immobilized P-selectin
CONDITION CONTEXT: inhibition of HSO3-Lea-PAA-biotin (0.33 μg/ml) binding to immobilized human P-selectin/IgG-Fc, 2 hours at 37° C.
# do not omit the unit; it follows the number

// solved cases for EC50 follow
O=C(COP(=O)(O)O)C(O)C(O)COC1OC(CO)C(O)C(O)C1O (centres unmarked) [Reference compound 2, reference compound]	8.2 mM
O=C(NC1C(OCC(O)C(O)C(=O)COP(=O)(O)O)OC(CO)C(O)C1O)OCC(Cl)(Cl)Cl (centres unmarked)	3.7 mM
CCCCCCCC(=O)NC1C(OCC(O)C(O)C(=O)COP(=O)(O)O)OC(CO)C(O)C1O (centres unmarked)	4.5 mM
O=C(COP(=O)(O)O)C(O)C(O)COC1OC(CO)C(O)C(O)C1O (centres unmarked) [Compound 3]	2 mM

# next molecule below
EC50 for O=C(NC1C(OCC(O)C(O)C(=O)COP(=O)(O)O)OC(CO)C(O)C1O)c1ccccc1 (centres unmarked) is 0.9 mM
